property.label: melting point

Worked examples, 3 compounds total:
[[record]]
line_notation = "O=C1O[C@@H](Cn2ccnn2)[C@@H]2COc3cc(N4CC5(COC5)C4)c(F)cc3N12"
value_measured = "219 to 221 °C"

[[record]]
line_notation = "O=C(NC[C@@H]1OC(=O)N2c3cc(F)c(N4[C@@H]5CC[C@H]4CSC5)cc3OC[C@@H]12)c1ccncc1"
value_measured = "149 to 150 °C"

[[record]]
line_notation = "O=C(NC[C@H]1OC(=O)N2c3cc(F)c(N4CCSCC4)cc3OC[C@H]12)C1CCC1"
value_measured = "183 to 185 °C"


Form: compound = `O=C1O[C@@H](CNc2ccon2)[C@@H]2COc3cc(N4[C@@H]5CC[C@H]4CSC5)c(F)cc3N12` ; melting point = 180 to 182 °C
